- measured_on: SARS-CoV-2 M^pro (Severe acute respiratory syndrome coronavirus 2, UniProt P0DTD1)
- procedure_text: Mpro FRET inhibition, continuous fluorometric assay (Fluorolog-3), enzyme from pET21-M^pro vector
- Format: biochemical
- test_conditions: read-out: Ki (μM)^b
experimental_endpoint: Ki (µM)
Record the value in µM, omitting the unit from your answer.

For orientation, consider the following solved cases.
compound="O=C(N[C@@H](Cc1ccccc1)C(=O)N[C@H](/C=C/[N+](=O)[O-])CCc1ccccc1)OCc1ccccc1 [FGA86]" experimental_endpoint=Ki quantitative_result=2.67
compound="COc1cccc2[nH]c(C(=O)N[C@@H](CC(C)C)C(=O)N[C@H](/C=C/[N+](=O)[O-])C[C@@H]3CCNC3=O)cc12 [FGA146]" experimental_endpoint=Ki quantitative_result=0.96
compound="CC(C)CC(NC(=O)C=Cc1ccccc1)C(=O)NC(C=C[N+](=O)[O-])CCc1ccccc1 (stereo not drawn) [FGA177]" experimental_endpoint=Ki quantitative_result=8.59
compound="CC(C)C[C@H](NC(=O)OCc1ccccc1)C(=O)N[C@H](/C=C/[N+](=O)[O-])C[C@@H]1CCNC1=O [FGA147]" experimental_endpoint=Ki quantitative_result=1.33
compound="CC(C)C[C@H](NC(=O)[C@@H](NC(=O)[C@H](C)NC(=O)OC(C)(C)C)C(C)C)C(=O)N[C@H](/C=C/[N+](=O)[O-])CCc1ccccc1 [FGA159]" experimental_endpoint=Ki quantitative_result=1.19

# context switch: different compound, same Ki
Ask: Fill blank: measured Ki of the compound CC(C)CC(NC(=O)C=Cc1ccccc1)C(=O)NC(C=C[N+](=O)[O-])CC1CCNC1=O (stereo not drawn) [FGA145] is ____.
Reply: 9.82

All figures here come from paper PMC10796436.
